target: Tyrosine-protein kinase BTK (Homo sapiens, UniProt Q06187); experiment: BTK and EGFR in Vitro Assay: The BTK and EGFR biochemical assays utilize LANTHASCREEN® Eu Kinase Binding Assays from Thermo Fisher Scientific, measuring the binding of the kinase with a […] tracer. The assay buffer consists of 50 mM HEPES pH 7.5, 0.01% BRU™-35, 10 mM MgCl2, 1 mM EGTA, and 1 mM DTT. The test compounds are diluted and added to the assay plate with a Labcyte ECHO® 555 liquid handler. The compounds are tested in 10 point dose response curves (100 μM-0.005 μM) with a maximum DMSO concentration of 1%. The assays are performed in 20 μL in low-volume 384-well white proxiplates. For the BTK assay, the concentration of full-length His-labeled BTK in the assay is 5 nM, the Eu-anti-His antibody is 2 nM, and the kinase tracer 236 is 60 nM. For the EGFR assay, the concentration of truncated (amino acids 668-1210) GST-labeled EGFR is 5 nM, the Eu-anti-GST antibody is 2 nM, and the kinase tracer 199 is 10 nM. The components of the assay (compound, enzyme/antibody, tracer) are assembled and incubated for 30 min prior to being read on a Perkin-Elmer EnVision with excitation at 340 nm, tracer emission at 665 nm, and antibody emission at 615 nm. The signal ratio is converted to percent inhibition using the following equation: % Inhibition=100−[(Test Compound−Median Minimum)/(Median Maximum−Median Minimum)×100].
Sequence (Q06187 whole entry, the tested form may be a part): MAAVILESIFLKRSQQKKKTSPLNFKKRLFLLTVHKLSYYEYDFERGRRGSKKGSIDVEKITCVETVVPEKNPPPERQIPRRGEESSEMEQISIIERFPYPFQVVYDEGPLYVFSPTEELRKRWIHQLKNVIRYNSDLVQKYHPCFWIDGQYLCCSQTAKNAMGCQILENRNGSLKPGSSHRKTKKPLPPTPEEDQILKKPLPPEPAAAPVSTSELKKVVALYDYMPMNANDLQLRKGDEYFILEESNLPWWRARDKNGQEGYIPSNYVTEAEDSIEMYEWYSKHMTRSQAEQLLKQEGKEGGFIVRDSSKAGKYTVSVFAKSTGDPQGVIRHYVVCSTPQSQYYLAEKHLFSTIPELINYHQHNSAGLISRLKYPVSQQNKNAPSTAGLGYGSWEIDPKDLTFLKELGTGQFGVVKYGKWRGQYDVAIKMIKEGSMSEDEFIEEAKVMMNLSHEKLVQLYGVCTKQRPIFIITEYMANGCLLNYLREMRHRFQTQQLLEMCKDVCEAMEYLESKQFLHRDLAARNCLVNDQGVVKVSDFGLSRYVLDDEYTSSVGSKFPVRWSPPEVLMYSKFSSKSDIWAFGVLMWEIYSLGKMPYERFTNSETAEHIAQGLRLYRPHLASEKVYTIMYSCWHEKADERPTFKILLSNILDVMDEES
The molecules listed here are annotated with their IC50.
API: value field is a number in nM; no unit string.

C=CC(=O)N1CC(Nc2cncc(-c3cnc(Oc4cccc(C#N)c4)nc3)c2)C1: 75.8

Prompt: Look up IC50 for this molecule: `C=CC(=O)N1CC[C@H](Nc2cncc(-c3cnc(Nc4cccc(OC(F)F)c4)nc3)c2)C1`
Response: 6.08

Prompt: Another molecule: `C=CC(=O)N1CC[C@H](Nc2cncc(-c3cnc(Nc4cccc(C)n4)nc3)c2)C1`
Response: 32.9

Prompt: Same question for `C=CC(=O)N1CC[C@H](Nc2cncc(-c3cnc(Oc4cccc(OC(F)F)c4)nc3)c2)C1` please.
Response: 55.5
